SYSTEM_TESTED: recombinant PIM-1 (Homo sapiens, UniProt P11309)
Sequence (P11309 whole entry): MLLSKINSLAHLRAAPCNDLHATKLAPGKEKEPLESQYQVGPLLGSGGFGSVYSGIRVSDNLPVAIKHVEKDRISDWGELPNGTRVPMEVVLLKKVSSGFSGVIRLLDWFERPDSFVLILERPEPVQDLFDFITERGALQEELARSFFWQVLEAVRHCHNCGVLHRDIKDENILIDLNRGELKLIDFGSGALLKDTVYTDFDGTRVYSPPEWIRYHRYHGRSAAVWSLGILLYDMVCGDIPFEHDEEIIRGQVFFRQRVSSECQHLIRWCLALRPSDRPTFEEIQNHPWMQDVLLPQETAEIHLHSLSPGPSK
ASSAY_DETAILS: PIM-1 kinase assay, 33P-ATP filter plate
MEASUREMENT_PARAMETERS: recombinant PIM-1, 15 uM ATP; read-out: PIM1: IC50
PROPERTY: log10(IC50) (log10 of the value in nM)
Plainly stated, the numbers are log10 of IC50 given in nM.

Worked examples follow.
SMILES_REPRESENTATION: Cc1nccn1-c1cccc(Nc2ccn3ncc(/C=C4\SC(=O)NC4=O)c3n2)c1
log10(IC50): 0.60
//
SMILES_REPRESENTATION: CN1CCCN(c2ccn3ncc(/C=C4\NC(=O)NC4=O)c3n2)CC1
log10(IC50): 3.55
//
SMILES_REPRESENTATION: O=C1NC(=S)S/C1=C/c1cnn2ccc(Nc3cccc(Cl)c3)nc12
log10(IC50): 1.26
//
SMILES_REPRESENTATION: COC(=O)c1cccc(-c2ccn3ncc(/C=C4/SC(=S)NC4=O)c3n2)c1
log10(IC50): 1.32
//
SMILES_REPRESENTATION: O=C1NC(=O)/C(=C/c2cnn3ccc(-c4ccccc4F)nc23)S1
log10(IC50): 2.38
//
SMILES_REPRESENTATION: CC(C)(C)c1cccc(Nc2ccn3ncc(/C=C4/SC(=O)NC4=O)c3n2)c1
log10(IC50): 2.03

Let us move to another entry and its log10(IC50).
Exercise: Record request: log10(IC50) value, item `O=C1NC(=O)/C(=C/c2cnn3ccc(Nc4ccc(Cl)cc4)nc23)N1`
Key: 2.29

====

Quick reference: IC50 of the listed items.
SYSTEM_TESTED: recombinant human PIM2 (Homo sapiens, UniProt Q9P1W9)
Sequence (Q9P1W9 whole entry): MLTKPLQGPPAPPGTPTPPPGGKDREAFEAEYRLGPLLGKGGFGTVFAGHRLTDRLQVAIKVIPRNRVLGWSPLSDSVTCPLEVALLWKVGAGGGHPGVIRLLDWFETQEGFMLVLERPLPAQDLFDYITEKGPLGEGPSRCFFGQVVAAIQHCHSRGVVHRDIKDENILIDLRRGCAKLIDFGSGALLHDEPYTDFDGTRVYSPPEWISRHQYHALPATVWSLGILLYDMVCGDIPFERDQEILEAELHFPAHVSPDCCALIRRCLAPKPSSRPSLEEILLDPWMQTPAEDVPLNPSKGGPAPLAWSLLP
ASSAY_DETAILS: PIM-2 kinase assay, 33P-ATP filter plate
Assay type: biochemical
MEASUREMENT_PARAMETERS: PIM2, 5 μM ATP; read-out: PIM2 IC50 (printed in the PIM1: IC50 (μM) column)
Procedure: Test compounds dissolved and diluted in DMSO (2 μl) were added to a reaction mixture comprising 10 μl of 5× Reaction Buffer (40 mM MOPS pH 7.0, 5 mM EDTA), 10 μl of recombinant human PIM2 solution (4 ng PIM-2 dissolved in dilution buffer (20 mM MOPS pH 7.0; EDTA 1 mM; 5% Glycerol; 0.01% Brij 35; […]; […] 2-mercaptoethanol; 1 mg/ml BSA)) and 8 ul of water. […]
Note: unit µM is implicit; provide only the numeric part.

Worked examples follow.
COMPOUND: O=C1NC(=O)/C(=C/c2cnn3ccc(-c4ccc(C(=O)NCC5CC5)s4)nc23)N1
SYSTEM_TESTED: recombinant human PIM2 (Homo sapiens, UniProt Q9P1W9)
UNIT_NAME: µM
NUMERIC_VALUE: 0.58
//
COMPOUND: CC(O)CNC(=O)c1ccc(-c2ccn3ncc(/C=C4\NC(=O)NC4=O)c3n2)s1 (stereo not drawn)
SYSTEM_TESTED: recombinant human PIM2 (Homo sapiens, UniProt Q9P1W9)
UNIT_NAME: µM
NUMERIC_VALUE: 0.54

Let us move to another entry and its IC50.
Exercise: Record request: IC50 value, item `CCOCCNC(=O)c1ccc(-c2ccn3ncc(/C=C4\NC(=O)NC4=O)c3n2)s1`
Key: 1.06

====

SYSTEM_TESTED: recombinant human CK2 (Homo sapiens, UniProt P68400)
Sequence (P68400 whole entry): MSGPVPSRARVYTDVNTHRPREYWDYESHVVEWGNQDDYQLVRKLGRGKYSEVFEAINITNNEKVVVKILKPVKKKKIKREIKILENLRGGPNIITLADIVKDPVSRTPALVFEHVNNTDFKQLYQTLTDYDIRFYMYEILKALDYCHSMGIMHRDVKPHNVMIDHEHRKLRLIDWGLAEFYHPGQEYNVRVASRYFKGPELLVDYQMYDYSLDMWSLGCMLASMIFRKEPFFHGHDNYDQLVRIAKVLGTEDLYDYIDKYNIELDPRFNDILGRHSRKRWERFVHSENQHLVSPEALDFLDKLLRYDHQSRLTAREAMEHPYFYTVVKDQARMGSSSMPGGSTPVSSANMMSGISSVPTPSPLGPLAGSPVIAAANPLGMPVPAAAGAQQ
Sequence (P67870 whole entry partner): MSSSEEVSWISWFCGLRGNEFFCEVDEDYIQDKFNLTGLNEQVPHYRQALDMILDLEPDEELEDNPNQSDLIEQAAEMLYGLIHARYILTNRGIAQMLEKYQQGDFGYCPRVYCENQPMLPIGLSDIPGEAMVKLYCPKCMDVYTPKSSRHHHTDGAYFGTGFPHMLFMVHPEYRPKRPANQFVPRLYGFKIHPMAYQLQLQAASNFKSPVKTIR
ASSAY_DETAILS: CK2 assay, cell-free, 33P-ATP filter plate
Quick reference: pIC50 of the listed items.
Note on units: pIC50 is unitless, being -log10 of a concentration expressed in mol/L.

Worked examples follow.
SMILES_REPRESENTATION: CC(C)(C)c1cccc(Nc2ccn3ncc(/C=C4/SC(=O)NC4=O)c3n2)c1
SYSTEM_TESTED: recombinant human CK2 (Homo sapiens, UniProt P68400)
pIC50: 7.10
--
SMILES_REPRESENTATION: Cc1nccn1-c1cccc(Nc2ccn3ncc(/C=C4\SC(=O)NC4=O)c3n2)c1
SYSTEM_TESTED: recombinant human CK2 (Homo sapiens, UniProt P68400)
pIC50: 7.66
--
SMILES_REPRESENTATION: O=C1NC(=O)/C(=C\c2cnn3ccc(Nc4cccc(Cl)c4)nc23)N1
SYSTEM_TESTED: recombinant human CK2 (Homo sapiens, UniProt P68400)
pIC50: 8.05

Exercise: Record request: pIC50 value, item `CN1CCN(c2ccc(Nc3ccn4ncc(/C=C5/NC(=O)NC5=O)c4n3)cc2)CC1`
Key: 7.24

Exercise: Record request: pIC50 value, item `O=C1NC(=O)/C(=C/c2cnn3ccc(-c4ccccc4F)nc23)S1`
Key: 7.39

Exercise: Record request: pIC50 value, item `O=C1NC(=O)/C(=C\c2cnn3ccc(-c4cccc(C(=O)O)c4)nc23)S1`
Key: 8.05

====

Quick reference: IC50 of the listed items.
SYSTEM_TESTED: recombinant human CK2 (Homo sapiens)
ASSAY_DETAILS: CK2 assay, cell-free, 33P-ATP filter plate

Worked examples follow.
SMILES_REPRESENTATION: CCOCCNC(=O)c1ccc(-c2ccn3ncc(/C=C4\NC(=O)NC4=O)c3n2)s1
IC50: < 100 nM
--
SMILES_REPRESENTATION: CN1CCN(c2cccc(Nc3ccn4ncc(/C=C5\NC(=O)NC5=O)c4n3)c2)CC1
IC50: 247 nM
--
SMILES_REPRESENTATION: CN1CCCN(c2ccn3ncc(/C=C4\NC(=O)NC4=O)c3n2)CC1
IC50: 1970 nM
--
SMILES_REPRESENTATION: O=C1NC(=O)/C(=C\c2cnn3ccc(Nc4cccc(Cn5ccnc5)c4)nc23)N1
IC50: 120 nM

Let us move to another entry and its IC50.
Exercise: Record request: IC50 value, item `CCN(CC)Cc1cccc(Nc2ccn3ncc(/C=C4\NC(=O)NC4=O)c3n2)c1`
Key: 460 nM

====

SYSTEM_TESTED: recombinant PIM-1 (Homo sapiens)
ASSAY_DETAILS: PIM-1 kinase assay, 33P-ATP filter plate
MEASUREMENT_PARAMETERS: recombinant PIM-1, 15 uM ATP; read-out: PIM1: IC50
pIC50: −log10 of the molar value.
Fulfilled means recorded pIC50 is 6 or above; Not fulfilled means it is below 6.

Exercise: Is it the case that `O=C1NC(=O)/C(=C\c2cnn3ccc(Nc4cccc(Cl)c4)nc23)N1` has pIC50 reaching or exceeding 6?
Key: Fulfilled

Exercise: Is it the case that `Nc1ccn2ncc(/C=C3\NC(=O)NC3=O)c2n1` has pIC50 reaching or exceeding 6?
Key: Fulfilled

Exercise: Is it the case that `O=C1NC(=O)/C(=C/c2cnn3ccc(NCCF)nc23)N1` has pIC50 reaching or exceeding 6?
Key: Not fulfilled

====

Quick reference: IC50 of the listed items.
SYSTEM_TESTED: recombinant human CK2 (Homo sapiens, UniProt P68400)
ASSAY_DETAILS: CK2 assay, cell-free, 33P-ATP filter plate
Description: Modulatory activity of compounds described herein was assessed in vitro in cell-free CK2 assays by the following method. […]
Note: unit nM is implicit; provide only the numeric part.

SMILES_REPRESENTATION: O=C1NC(=O)/C(=C/c2cnn3ccc(-c4ccccc4F)nc23)N1
SYSTEM_TESTED: recombinant human CK2 (Homo sapiens, UniProt P68400)
PROPERTY: IC50
NUMERIC_VALUE: 179

SMILES_REPRESENTATION: CN1CCCN(c2ccn3ncc(/C=C4\SC(=O)NC4=O)c3n2)CC1
SYSTEM_TESTED: recombinant human CK2 (Homo sapiens, UniProt P68400)
PROPERTY: IC50
NUMERIC_VALUE: 130

Let us move to another entry and its IC50.
Exercise: Record request: IC50 value, item `CC(C)Oc1cccc(Nc2ccn3ncc(/C=C4\NC(=O)NC4=O)c3n2)c1`
Key: 23

====

Test system: K-562 human chronic myelogenous leukemia (CML) cells
ASSAY_DETAILS: Alamar Blue (AB) cell proliferation assay, K-562
Format: cell-based
MEASUREMENT_PARAMETERS: K562, 96 h, K-562 cells, four days with compound
Quick reference: IC50 of the listed items.
Note: unit nM is implicit; provide only the numeric part.

Worked examples follow.
SMILES_REPRESENTATION: O=C1NC(=S)S/C1=C/c1cnn2ccc(Nc3cccc(Cl)c3)nc12
UNIT_NAME: nM
IC50: 153
//
SMILES_REPRESENTATION: COC(=O)c1cccc(-c2ccn3ncc(/C=C4/SC(=O)NC4=O)c3n2)c1
UNIT_NAME: nM
IC50: 51

Exercise: Record request: IC50 value, item `O=C1NC(=O)/C(=C\c2cnn3ccc(Nc4cccc(Cl)c4)nc23)N1`
Key: 153

Exercise: Record request: IC50 value, item `O=C1NC(=O)/C(=C\c2cnn3ccc(Nc4cccc(Cl)c4)nc23)S1`
Key: 132
